- assay overview: Toxicity of BPQ B to honeybee larvae when fed treated syrup
- Type: in vivo, Apis mellifera
- test settings: honeybee, in vivo, po, 0.005µg/mL (e1-e2) in sucrose fed to colony; read-out: % Emergence
measured quantity: survival (%)
Write the answer as a number in %, unit excluded.

Tell me the measured survival of CC(C)(C)[C@H]1CC[C@H](CC2=C(O)C(=O)c3ccccc3C2=O)CC1 [BPQ B, buparvaquone] , please.
82.4

====

- assay overview: Toxicity of BPQ B to honeybee larvae when fed treated syrup
- Format: in vivo, Apis mellifera
- test settings: honeybee, in vivo, po, 0.05µg/mL (d1-d2) in sucrose fed to colony; read-out: % Emergence
measured quantity: survival
In your response, the unit should come after the numeric value.

Tell me the measured survival of CC(C)(C)[C@H]1CC[C@H](CC2=C(O)C(=O)c3ccccc3C2=O)CC1 , please.
81.8%

====

- assay overview: Toxicity of BPQ B to honeybee larvae when fed treated syrup
- Type: in vivo, Apis mellifera
- test settings: honeybee, in vivo, po, 0.0005µg/mL (f1-f2) in sucrose fed to colony; read-out: % Emergence
measured quantity: survival (%)
Write the answer as a number in %, unit excluded.

Tell me the measured survival of CC(C)(C)[C@H]1CC[C@H](CC2=C(O)C(=O)c3ccccc3C2=O)CC1 , please.
70.3

====

- assay overview: Toxicity of BPQ B to honeybee larvae when fed treated syrup
- Assay type: in vivo, Apis mellifera
- test settings: honeybee, in vivo, po, 0.00005µg/mL (g1) in sucrose fed to colony; read-out: % Emergence
measured quantity: survival (%)
Write the answer as a number in %, unit excluded.

Tell me the measured survival of CC(C)(C)[C@H]1CC[C@H](CC2=C(O)C(=O)c3ccccc3C2=O)CC1 , please.
96.8

====

- assay overview: Toxicity of BPQ B to honeybee larvae when fed treated syrup
- Assay type: in vivo, Apis mellifera
- test settings: honeybee, in vivo, po, 0.5µg/mL (c1-c2) in sucrose fed to colony; read-out: % Emergence
measured quantity: survival

Tell me the measured survival of CC(C)(C)[C@H]1CC[C@H](CC2=C(O)C(=O)c3ccccc3C2=O)CC1 [BPQ B, buparvaquone] , please.
85.7%
